tested on: Ipomea hederaceae (IPOHE); assay: Post-emergence biological efficacy (percentage damage); format: in vivo; conditions: dose 1,000 g/ha, evaluated after 13 days, 100=total damage, 0=no damage

{"compound": "C=Cc1c(N)nc(-c2ccc(Cl)c(N(C)C)c2F)nc1C(=O)OCCCCCCCC", "unit annotation": "%", "Percentage damage IPOHE, post-emergence": 80}
{"compound": "C/C=C\\c1c(N)nc(-c2ccc(Cl)c(OC)c2F)nc1C(=O)OC [27-62 (Z)]", "unit annotation": "%", "Percentage damage IPOHE, post-emergence": 100}
{"compound": "C/C=C/c1c(N)nc(-c2ccc(Cl)c(OC)c2F)nc1C(=O)OC [27-62 (E)]", "unit annotation": "%", "Percentage damage IPOHE, post-emergence": 90}
{"compound": "C/C=C/c1c(N)nc(C2CC2)nc1C(=O)OC [2-62 (E)]", "unit annotation": "%", "Percentage damage IPOHE, post-emergence": 50}
{"compound": "C/C=C\\c1c(N)nc(C2CC2)nc1C(=O)OC [2-62 (Z)]", "unit annotation": "%", "Percentage damage IPOHE, post-emergence": 100}

Taken from patent US20120053053A1.
